Here, each record is paired with measured IC50 data.
Experimental system: CD38 (Homo sapiens)
Construct: incubating 1 mM cADPR with 2 mg/mL of CD38 for 10 min
Assay remarks: Inhibition of CD38-catalyzed cADPR hydrolysis (fluorimetric cycling assay)
Type: biochemical
Condition parameters: 1 mM cADPR, 2 mg/mL CD38, 10 min, pH 4.5; IC50 values >1000 μM are approximate; read-out: inhibitory activity (IC50) of CD38-mediated cADPR hydrolysis

Smiles code	IC50
Nc1nc2c(=O)n([C@@H]3O[C@H](COP(=O)(O)O)[C@@H](O)[C@H]3O)cnc2n1CCCCO	332 µM
O=c1c2nc(Br)[nH]c2ncn1[C@H]1O[C@@H](COP(=O)(O)O)[C@H](O)[C@@H]1O	230 µM
O=c1c2ncn(CCCCO)c2ncn1[C@@H]1O[C@H](CO)[C@@H](O)[C@H]1O	~2300 µM
O=c1c2ncn([C@@H]3O[C@H](CO)[C@@H](O)[C@H]3O)c2ncn1[C@@H]1O[C@H](CO)[C@@H](O)[C@H]1O	~7500 µM
[N-]=[N+]=Nc1nc2c(=O)n([C@@H]3O[C@H](COP(=O)(O)O)[C@@H](O)[C@H]3O)cnc2n1CCCCO	201 µM

Exercise: Which value of IC50 has been reported for "O=c1c2nc[nH]c2ncn1[C@H]1O[C@@H](COP(=O)(O)O)[C@H](O)[C@@H]1O" in the records?
Key: 460 µM

Exercise: # iterate: "O=c1c2ncn(CCCCO)c2ncn1[C@@H]1O[C@H](COP(=O)(O)O)[C@@H](O)[C@H]1O"
Key: 757 µM

====

Experimental system: CD38 (Homo sapiens, UniProt P28907)
Construct: incubating 1 mM cADPR with 2 mg/mL of CD38 for 10 min
Sequence (P28907 1-300): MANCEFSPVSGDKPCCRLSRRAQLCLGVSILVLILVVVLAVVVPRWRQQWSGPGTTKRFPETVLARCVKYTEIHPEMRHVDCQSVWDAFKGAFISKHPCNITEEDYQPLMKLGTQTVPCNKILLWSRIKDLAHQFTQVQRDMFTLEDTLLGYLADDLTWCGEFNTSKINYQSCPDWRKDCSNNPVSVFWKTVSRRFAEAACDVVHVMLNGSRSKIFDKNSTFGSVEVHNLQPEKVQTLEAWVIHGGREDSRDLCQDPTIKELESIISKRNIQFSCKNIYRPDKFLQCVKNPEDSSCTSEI
Assay remarks: Inhibition of CD38-catalyzed cADPR hydrolysis (fluorimetric cycling assay)
Type: biochemical
Experimental readout: inhibitory activity on CD38-mediated cADPR hydrolysis, in words

Smiles code	Recorded measurement
[N-]=[N+]=Nc1nc2c(=O)n([C@@H]3O[C@H](CO)[C@@H](O)[C@H]3O)cnc2n1[C@@H]1O[C@H](CO)[C@@H](O)[C@H]1O	no activity
O=c1c2nc(Br)n([C@@H]3O[C@H](CO)[C@@H](O)[C@H]3O)c2ncn1[C@@H]1O[C@H](CO)[C@@H](O)[C@H]1O	no activity
